Below, each of the sequences is paired with its reported self-splicing fitness (ln) value.
assay: self-splicing fitness, log relative to wild type (ln ratio); higher = more splicing; Tetrahymena group I intron in knt gene, E. coli kanamycin selection, DiMSum; sequences stand for … in CUCUCU…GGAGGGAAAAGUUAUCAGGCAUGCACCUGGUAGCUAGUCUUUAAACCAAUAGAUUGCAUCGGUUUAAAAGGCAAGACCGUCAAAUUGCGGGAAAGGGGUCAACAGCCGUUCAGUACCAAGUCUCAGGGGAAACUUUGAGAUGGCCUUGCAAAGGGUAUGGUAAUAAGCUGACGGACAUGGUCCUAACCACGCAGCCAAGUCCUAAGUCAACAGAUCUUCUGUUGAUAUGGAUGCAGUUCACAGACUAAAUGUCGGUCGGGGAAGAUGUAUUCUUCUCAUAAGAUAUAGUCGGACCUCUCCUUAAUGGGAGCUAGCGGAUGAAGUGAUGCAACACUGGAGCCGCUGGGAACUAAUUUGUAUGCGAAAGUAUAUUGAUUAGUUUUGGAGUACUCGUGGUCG; conditions: 37 °C;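 note: selection with 25 µg/mL kanamycin versus none on LB agar overnight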

# residue-string, self-splicing fitness (ln)
measured = [
    ("GGACAGCAAUAUUACGACGC", 0.658),
    ("GAACAGCAAUAUUACGACAG", -2.55),
    ("GCUAAGCAAUAUUACGCAGC", -2.62),
    ("UGGUAGCAAUAUUACGCUGC", -2.86),
    ("CCCGAGCAAUAUUACGAUCA", -2.98),
    ("AAGGAGCAAUAUUACGGUGA", -1.09),
    ("GCGUAGCAAUAUUACGACGA", -0.0139),
    ("GCUUAGCAAUAUUACGUGGG", -1.72),
    ("UGGCAGCAAUAUUACGGCCC", -0.287),
    ("GGGGAGCAAUAUUACGGACA", -1.12),
    ("GAGCAGCAAUAUUACGAACU", -0.227),
    ("AGAUAGCAAUAUUACGUACU", -0.0062),
    ("GUAUAGCAAUAUUACGUGUU", -1.63),
    ("UUCGAGCAAUAUUACGUGUG", -1.59),
    ("UGGUAGCAAUAUUACGUUUA", -0.847),
    ("CAUAAGCAAUAUUACGGACU", -2.97),
]

* * *

assay: self-splicing fitness, log relative to wild type (ln ratio); higher = more splicing; Tetrahymena group I intron in knt gene, E. coli kanamycin selection, DiMSum; sequences stand for … in CUCUCU…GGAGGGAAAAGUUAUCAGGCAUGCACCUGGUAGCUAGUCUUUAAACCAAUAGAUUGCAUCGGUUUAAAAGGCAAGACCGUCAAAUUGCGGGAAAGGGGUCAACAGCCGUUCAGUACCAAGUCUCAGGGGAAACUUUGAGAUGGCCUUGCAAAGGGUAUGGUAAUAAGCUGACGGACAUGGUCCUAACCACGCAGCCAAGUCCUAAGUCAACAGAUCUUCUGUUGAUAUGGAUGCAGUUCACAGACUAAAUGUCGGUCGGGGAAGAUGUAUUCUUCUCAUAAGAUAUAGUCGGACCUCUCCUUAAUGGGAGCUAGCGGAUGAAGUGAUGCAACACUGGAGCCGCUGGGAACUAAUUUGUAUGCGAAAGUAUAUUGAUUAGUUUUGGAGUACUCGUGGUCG; details: 37 °C

# residue-string, self-splicing fitness (ln)
records = [
    ("GACAAGCAAUAUUACGAAUU", -1.47),
    ("CCACAGCAAUAUUACGAAGA", -2.55),
    ("GCCUAGCAAUAUUACGAAAG", -1.07),
    ("AGCUAGCAAUAUUACGCAUU", -1.48),
    ("UUGGAGCAAUAUUACGUUGC", -1.44),
    ("GGUGAGCAAUAUUACGGCAC", -0.155),
    ("GAACAGCAAUAUUACGGGCG", -0.0108),
    ("AGUAAGCAAUAUUACGCACA", -0.356),
    ("ACCAAGCAAUAUUACGAGCG", -1.31),
    ("CCGGAGCAAUAUUACGUGGU", 0.658),
    ("CUGAAGCAAUAUUACGCCUU", -2.33),
    ("AAACAGCAAUAUUACGCGUU", -1.1),
    ("AGUGAGCAAUAUUACGCGGA", -1.99),
    ("GUGAAGCAAUAUUACGGCAG", -1.06),
    ("CCGUAGCAAUAUUACGAGCU", -3.35),
    ("GAUCAGCAAUAUUACGGAGU", -0.717),
    ("AGAAAGCAAUAUUACGACAU", 0.0923),
    ("UACCAGCAAUAUUACGGAAG", -1.57),
    ("UAUAAGCAAUAUUACGCAUU", -0.414),
    ("ACCGAGCAAUAUUACGGGAG", -2.69),
    ("AUGGAGCAAUAUUACGGGGC", -2.14),
    ("UAGGAGCAAUAUUACGUCCU", -2.25),
    ("GCAUAGCAAUAUUACGCGUG", -2.64),
    ("GUUUAGCAAUAUUACGCUCU", -0.764),
    ("GAGAAGCAAUAUUACGGAGC", -1.84),
    ("CUAAAGCAAUAUUACGCUGC", -2.53),
    ("GGUCAGCAAUAUUACGGAGA", -1.69),
    ("GCCCAGCAAUAUUACGUAAG", -0.871),
    ("GCCAAGCAAUAUUACGGGGC", -2.85),
    ("GUAGAGCAAUAUUACGUUUA", -1.39),
    ("CCGUAGCAAUAUUACGACUU", -2.67),
    ("AGGCAGCAAUAUUACGGACC", -0.53),
    ("AUUGAGCAAUAUUACGCCUA", -1.52),
    ("UACCAGCAAUAUUACGUCCU", -1.34),
]

* * *

assay: self-splicing fitness, log relative to wild type (ln ratio); higher = more splicing; Tetrahymena group I intron in knt gene, E. coli kanamycin selection, DiMSum; sequences stand for … in CUCUCU…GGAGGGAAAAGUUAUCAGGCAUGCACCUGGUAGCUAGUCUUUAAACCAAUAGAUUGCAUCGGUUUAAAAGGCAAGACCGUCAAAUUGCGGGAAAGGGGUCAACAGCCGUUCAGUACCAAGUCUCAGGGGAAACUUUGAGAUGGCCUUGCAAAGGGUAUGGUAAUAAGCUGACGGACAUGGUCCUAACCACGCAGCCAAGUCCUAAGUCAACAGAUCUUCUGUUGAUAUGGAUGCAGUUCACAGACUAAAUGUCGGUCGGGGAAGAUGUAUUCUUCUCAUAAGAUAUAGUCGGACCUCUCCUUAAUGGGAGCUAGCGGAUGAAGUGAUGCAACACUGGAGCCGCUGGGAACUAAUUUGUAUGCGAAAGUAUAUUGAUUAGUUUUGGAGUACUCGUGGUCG; settings: 30 °C
self-splicing fitness (ln) of -3 or higher: True. Under -3: False.

# residue-string, assigned-label
measured = [
    ("UUUUAGCAAUAUUACGCCUU", "True"),
    ("UUCUAGCAAUAUUACGGAUC", "True"),
    ("GCCCAGCAAUAUUACGCUAC", "False"),
    ("AUUAAGCAAUAUUACGACCC", "True"),
    ("ACACAGCAAUAUUACGGGAG", "True"),
    ("CGAAAGCAAUAUUACGAGUG", "True"),
    ("CGGCAGCAAUAUUACGCGUC", "False"),
    ("CUCAAGCAAUAUUACGUGGA", "False"),
    ("UGUGAGCAAUAUUACGAGGC", "False"),
    ("AAUGAGCAAUAUUACGGAAC", "False"),
    ("GAAUAGCAAUAUUACGAAUG", "True"),
    ("ACUUAGCAAUAUUACGCCUA", "True"),
    ("AAGGAGCAAUAUUACGGGCA", "True"),
    ("GCGUAGCAAUAUUACGAGUC", "True"),
]

* * *

assay: self-splicing fitness, log relative to wild type (ln ratio); higher = more splicing; Tetrahymena group I intron in knt gene, E. coli kanamycin selection, DiMSum; sequences stand for … in CUCUCU…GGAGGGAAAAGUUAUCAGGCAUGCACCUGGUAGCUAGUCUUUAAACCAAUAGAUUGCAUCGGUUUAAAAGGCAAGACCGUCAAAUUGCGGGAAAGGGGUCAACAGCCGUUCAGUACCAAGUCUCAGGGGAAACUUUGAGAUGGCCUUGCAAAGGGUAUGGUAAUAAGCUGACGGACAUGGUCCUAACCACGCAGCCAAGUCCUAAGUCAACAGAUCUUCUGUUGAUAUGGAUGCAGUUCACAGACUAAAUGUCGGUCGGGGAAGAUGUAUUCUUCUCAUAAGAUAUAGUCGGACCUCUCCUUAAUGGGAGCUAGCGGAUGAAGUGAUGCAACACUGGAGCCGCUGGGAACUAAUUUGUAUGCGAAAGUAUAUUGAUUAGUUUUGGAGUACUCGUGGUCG; settings: 37 °C
measured-attribute: self-splicing fitness (ln)

# residue-string, result-value
data = [
    ("UAGCAGCAAUAUUACGUGUG", -0.7),
    ("CCUUAGCAAUAUUACGACAU", -2.85),
    ("ACAAAGCAAUAUUACGUCCG", -0.466),
    ("UGAAAGCAAUAUUACGUAUA", -1.28),
    ("GAUUAGCAAUAUUACGUACU", 0.0191),
    ("UCAAAGCAAUAUUACGAUGU", -0.341),
    ("CUUAAGCAAUAUUACGGAUU", -3.41),
    ("GACAAGCAAUAUUACGGACA", -0.153),
    ("CGGCAGCAAUAUUACGAUCC", -1.03),
    ("UGCGAGCAAUAUUACGUUCU", -2.05),
    ("GGCCAGCAAUAUUACGGCAG", -0.191),
    ("AAGAAGCAAUAUUACGGGCC", -1.52),
    ("ACCCAGCAAUAUUACGGCGG", -1.04),
    ("GCACAGCAAUAUUACGCGGG", -1.39),
    ("CCACAGCAAUAUUACGGUCG", 0.437),
    ("ACUUAGCAAUAUUACGGUGA", -1.56),
    ("UUGUAGCAAUAUUACGCCCA", -0.0943),
    ("AGGGAGCAAUAUUACGUCUU", -0.226),
    ("GAACAGCAAUAUUACGGGAG", -1.47),
    ("AGUGAGCAAUAUUACGACGA", -1.13),
    ("CGUAAGCAAUAUUACGACAA", -1.32),
    ("UAAUAGCAAUAUUACGUGAG", -1.47),
    ("CUCUAGCAAUAUUACGGAUC", -3.33),
    ("UAGUAGCAAUAUUACGAGGG", -2.03),
    ("CAGCAGCAAUAUUACGAAUC", -2.33),
    ("GGCGAGCAAUAUUACGAUUA", -1.44),
    ("CUUAAGCAAUAUUACGGGGG", -1.26),
    ("AAGCAGCAAUAUUACGGAGG", -2.53),
    ("AGAAAGCAAUAUUACGCGAU", -1.63),
    ("CAUGAGCAAUAUUACGCGGC", -2.58),
    ("GCAUAGCAAUAUUACGCCGU", -1.83),
    ("UGACAGCAAUAUUACGCUCC", -0.275),
    ("CCAUAGCAAUAUUACGCUUU", -3.1),
    ("UGGUAGCAAUAUUACGAUCA", 0.325),
    ("UUAGAGCAAUAUUACGGUUG", -1.16),
    ("CACCAGCAAUAUUACGCGUG", -2.44),
    ("AAAUAGCAAUAUUACGACUA", 0.06),
    ("CGUCAGCAAUAUUACGCCUA", -0.757),
    ("CGAGAGCAAUAUUACGGUGA", -2.44),
    ("AGAAAGCAAUAUUACGUCUG", -0.1),
    ("AAGAAGCAAUAUUACGGGUG", -1.12),
    ("UUUAAGCAAUAUUACGGUUA", -0.505),
    ("UGUUAGCAAUAUUACGGUUU", -2.02),
    ("CUCAAGCAAUAUUACGUGGA", -1.19),
    ("UCGGAGCAAUAUUACGCGGU", -2.94),
    ("CCGAAGCAAUAUUACGGUAC", -1.85),
    ("GAUCAGCAAUAUUACGGCCC", -0.61),
    ("CCCGAGCAAUAUUACGAUAA", -2.73),
    ("AAUCAGCAAUAUUACGCGGU", -1.14),
    ("UAGAAGCAAUAUUACGUCUC", -0.794),
    ("UGCCAGCAAUAUUACGGCCC", -0.528),
    ("CAGUAGCAAUAUUACGCUAA", -2.38),
    ("CAACAGCAAUAUUACGUAUA", -1.55),
    ("GACAAGCAAUAUUACGCAAA", -1.81),
    ("UCAUAGCAAUAUUACGAGGA", -0.473),
    ("CCCUAGCAAUAUUACGUACA", -2.87),
    ("UGGCAGCAAUAUUACGGGGC", -2.18),
    ("UAUUAGCAAUAUUACGAGAU", -2.01),
    ("CUGCAGCAAUAUUACGCGUC", -2.05),
    ("CUUUAGCAAUAUUACGAAGA", -2.43),
    ("CAUGAGCAAUAUUACGCUUC", -2.38),
    ("UAUCAGCAAUAUUACGAUCA", 0.19),
    ("GUGUAGCAAUAUUACGUAGU", -1.37),
    ("AAUCAGCAAUAUUACGCGCG", -0.098),
    ("GUCCAGCAAUAUUACGAUUA", -0.551),
    ("CUCGAGCAAUAUUACGUAUG", -1.2),
    ("GGGAAGCAAUAUUACGCACU", -1.94),
]
